test system: Human alphaherpesvirus 1; assay: Antiviral activity against HSV1; assay type: functional
Each item that follows carries a reported MIC.

- Smiles: "CCC(=O)C(CCCCCCCOc1ccc(OCCCCCCCC(C(=O)CC)C(=O)CC)cc1)C(=O)CC"
  Assay system: "Human alphaherpesvirus 1"
  MIC (µg/mL): 25
- Smiles: "CCC(=O)C(CCCCCCOc1ccc(OCCCCCCC(C(=O)CC)C(=O)CC)c(Cl)c1)C(=O)CC"
  Assay system: "Human alphaherpesvirus 1"
  MIC (µg/mL): 6
- Smiles: "CCC(=O)C(CCCCCCOc1ccc(OCCCCCCC(C(=O)CC)C(=O)CC)cc1)C(=O)CC"
  Assay system: "Human alphaherpesvirus 1"
  MIC (µg/mL): 6
- Smiles: "CCC(=O)C(CCCCCCOc1cccc(OCCCCCCC(C(=O)CC)C(=O)CC)c1)C(=O)CC"
  Assay system: "Human alphaherpesvirus 1"
  MIC (µg/mL): 12
- Smiles: "CCC(=O)C(CCCCOc1ccc(OCCCCC(C(=O)CC)C(=O)CC)cc1)C(=O)CC"
  Assay system: "Human alphaherpesvirus 1"
  MIC (µg/mL): 3
- Smiles: "CCC(=O)C(CCCCCOc1ccc(OCCCCCC(C(=O)CC)C(=O)CC)cc1)C(=O)CC"
  Assay system: "Human alphaherpesvirus 1"
  MIC (µg/mL): 3
- Smiles: "CCC(=O)C(CCCCCCOc1cc(Cl)c(OCCCCCCC(C(=O)CC)C(=O)CC)cc1Cl)C(=O)CC"
  Assay system: "Human alphaherpesvirus 1"
  MIC (µg/mL): 6
- Smiles: "CCC(=O)C(CCCCCCOc1ccc(OCCCCCCC(C(=O)CC)C(=O)CC)c(C)c1)C(=O)CC"
  Assay system: "Human alphaherpesvirus 1"
  MIC (µg/mL): 25

Source listed as ChEMBL document CHEMBL3244281.
